Listing of recorded cytotoxicity at 70.5 h by entry.
Assay: Human HepG2 cell viability assay in 384 well format
Assay type: toxicity, cell-based
Design: dose 125 nL, time 70.5 hour; concentration not given beside the values
Settings: HepG2 cells, read-out: Inhibition
Just the number please, in %, no unit attached.

Example results:
CCN1C(=O)C2(CCOCC2)c2cc(NC(=O)c3cccn3C)ccc21	-0.784
O=C1NCC2(CCN(C(=O)c3ccc4c(c3)CCCO4)CC2)O1	-1.35
CCC[C@@H]1CN(C(=O)Cc2sc(C)nc2C)C[C@H]1C(=O)O	-5.07
CC(C)CC(=O)Nc1cccc(CNCc2cccs2)c1	-3.67

Proceed to the following item.
Challenge: Which cytotoxicity at 70.5 h is listed for CCOCC1CN(c2ccc(C)nn2)Cc2nn(CC)cc21 (centres undefined) ?
Response given: -7

----------
Listing of recorded cytotoxicity at 70.5 h by entry.
Experiment: Human HepG2 cell viability assay in 384 well format
Type: toxicity, cell-based
Parameters: dose 125 nL, time 70.5 hour; concentration not given beside the values
Settings: HepG2 cells, read-out: Inhibition
Please append the unit to your numeric answer.

Example results:
Cc1noc([C@@H]2C[C@H]3OCC[C@H]3N(Cc3ccoc3)C2)n1	-6.19%
COc1cccc(N2CCC(CNC(=O)CN3CSCC3=O)C2)c1 (stereo unspecified)	-9.99%
COCc1nc(CN2CCOC(CNc3cccnn3)C2)cs1 (stereo unspecified)	-11.6%

Challenge: Which cytotoxicity at 70.5 h is listed for CN1CCN(C)C(c2nnc3ccc(C(=O)N4CCOCC4)cn23)C1 (stereo unspecified) ?
Response given: -21.5%

Challenge: Which cytotoxicity at 70.5 h is listed for COCCCNC(=O)CN(C)C1CCCN(c2cccnn2)C1 (stereo unspecified) ?
Response given: -6.82%

Challenge: Which cytotoxicity at 70.5 h is listed for CCc1n[nH]c(C2CN(CC(=O)NCCc3ccsc3)CCO2)n1 (stereo unspecified) ?
Response given: -3.93%

----------
Experiment: Human HepG2 cell viability assay in 384 well format
Assay type: toxicity, cell-based
Parameters: dose 125 nL, time 70.5 hour; concentration not given beside the values
Conditions: HepG2 cells, read-out: Inhibition
Test Readout: cytotoxicity at 70.5 h (%)
Just the number please, in %, no unit attached.

CCn1ccc(-c2cc(C(=O)O)n3ncc(Br)c3n2)n1	-11.6

Challenge: Which cytotoxicity at 70.5 h is listed for "O=C(NCCC(=O)N1CCCc2ccccc21)c1cc(F)cc(F)c1" ?
Response given: -7.42

Challenge: Which cytotoxicity at 70.5 h is listed for "O=C(NCC1(CO)CC1)c1nnn(-c2ccc(F)cc2)c1C1CC1" ?
Response given: -4.26

Challenge: Which cytotoxicity at 70.5 h is listed for COC(=O)C(C)(C)NC(=O)C1CC(=O)N(CC2CC2)C1 (stereo not given) ?
Response given: -6.45

Challenge: Which cytotoxicity at 70.5 h is listed for "CCC[C@H]1CN(S(=O)(=O)c2cc(C)ccc2C)C[C@@H]1N" ?
Response given: -0.438

Challenge: Which cytotoxicity at 70.5 h is listed for O=C(CN1CCOC(Cn2cccn2)C1)NCc1cccs1 (stereo not given) ?
Response given: -8.73

Challenge: Which cytotoxicity at 70.5 h is listed for CCN(Cc1ccoc1)C(C(N)=O)c1ccc(Br)cc1 (stereo not given) ?
Response given: 16.2
